B1: Paraneoplastic antigen-like protein 5 (Homo sapiens), Q96PV4 (parent)
chain: MALTLLEDWCKGMDMDPRKALLIVGIPMECSEVEIQDTVKAGLQPLCAYRVLGRMFRREDNAKAVFIELADTVNYTTLPSHIPGKGGSWEVVVKPRNPDDEFLSRLNYFLKDEGRSMTDVARALGCCSLPAESLDAEVMPQVRSPPLEPPKESMWYRKLKVFSGTASPSPGEETFEDWLEQVTEIMPIWQVSEVEKRRRLLESLRGPALSIMRVLQANNDSITVEQCLDALKQIFGDKEDFRASQFRFLQTSPKIGEKVSTFLLRLEPLLQKAVHKSPLSVRSTDMIRLKHLLARVAMTPALRGKLELLDQRGCPPNFLELMKLIRDEEEWENTEAVMKNKEKPSGRGRGASGRQARAEASVSAPQATVQARSFSDSSPQTIQGGLPPLVKRRRLLGSESTRGEDHGQATYPKAENQTPGREGPQAAGEELGNEAGAGAMSHPKPWET

Variants of: B1
ASSAY_CONDITIONS: with arpc4_human ARPC4, P59998

| VARIANT_LABEL | effect of a mutation on the interaction |
| --- | --- |
| T261A | with no effect |
| V274M | with no effect |
| R312Q | with no effect |

The measured values listed here are drawn from IntAct's records for PubMed 31515488.
